- TESTED_TARGET: natural β-amyloid peptide β-AP1-40 (human)
- Sequence (peptide, as listed by the source): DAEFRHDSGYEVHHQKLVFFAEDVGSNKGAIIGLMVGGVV
- PROCEDURE_DETAILS: cell-based or functional assay
Ends that are not written are not given here. * marks the point of attachment. Cholyl = C[C@H](CCC(=O)*)[C@H]1CC[C@H]2[C@@H]3[C@H](O)C[C@@H]4C[C@H](O)CC[C@]4(C)[C@H]3C[C@H](O)[C@]12C; iminobiotinyl = N=C1N[C@H]2[C@H](CS[C@H]2CCCCC(=O)*)N1; FICO = 5-(and 6-)-carboxyfluoresceinyl
ASSAY_READOUT: Fold Increase in Lag Time; nucleation assay; 100 mole % (fold)
Write down the numeric answer in fold and omit the unit.

Some entries whose results are on file:
>>> print(df.to_string())
                                     binder  experimental_value
0     {FICO}-KLVFFAEDVGSNKGA [FICO-Aβ16-30]                 1.6
1  iminobiotinyl-KLVFFAEDVGSNKGA [iminobiotinyl-Aβ16-30]                 1.2
2   Cholyl-AEDVGSNKGAIIGLM [cholyl-Aβ21-35]                 1.6

Next binder, Fold Increase in Lag Time; nucleation assay; 100 mole % to be filled in.
Lookup result for {FICO}-HDSGYEVHHQKLVFF [FICO-Aβ6-20] ; measured Fold Increase in Lag Time; nucleation assay; 100 mole %: 1.9
